Test: Intrinsic thermodynamic stability by DSC
Type: physicochemical
Conditions: 0.79 mg/mL, pH 6, 10 mM citrate, 10 mM phosphate

{"molecule": "Hu2B5.3: humanized 2B5-8.0; VH SEQ ID NO 64, VL SEQ ID NO 65 (antibody, V domains shown) VH: EVQLVQSGAEVKKPGASVKVSCKASGYTFTKYWLGWVRQAPGQGLEWIGDIYPGYDYTHYNEKFKDRATLTVDTSTSTAYMELRSLRSDDTAVYYCARSDGSSTYWGQGTLVTVSS VL: DVLMTQTPLSLPVTPGEPASISCTSSQNIVHSNGNTYLEWYLQKPGQSPQLLIYKVSNRFSGVPDRFSGSGSGTDFTLKISRVEAEDVGVYYCFQVSHVPYTFGGGTKVEIKR", "Tm1 (° C.), °C": 72.67}
